Value source: ChEMBL document CHEMBL5608191

system: Cytochrome P450 3A4 (Homo sapiens)
Sequence (P08684 whole entry): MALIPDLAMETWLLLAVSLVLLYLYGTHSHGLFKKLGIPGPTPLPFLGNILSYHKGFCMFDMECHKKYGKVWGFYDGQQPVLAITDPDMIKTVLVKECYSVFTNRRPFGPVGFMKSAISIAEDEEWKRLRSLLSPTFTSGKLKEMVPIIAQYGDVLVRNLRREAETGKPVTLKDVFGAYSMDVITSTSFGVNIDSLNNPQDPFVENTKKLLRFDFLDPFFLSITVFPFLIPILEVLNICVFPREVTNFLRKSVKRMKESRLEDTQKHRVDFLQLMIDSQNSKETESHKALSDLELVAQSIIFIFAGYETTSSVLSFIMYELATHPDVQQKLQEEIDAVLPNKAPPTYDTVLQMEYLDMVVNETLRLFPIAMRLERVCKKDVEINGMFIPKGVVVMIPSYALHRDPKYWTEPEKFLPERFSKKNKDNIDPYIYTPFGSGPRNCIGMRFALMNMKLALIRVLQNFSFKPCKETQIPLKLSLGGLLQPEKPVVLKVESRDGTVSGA
assayNotes: Inhibition of CYP3A4 (unknown origin)
Format: ADME
recordedMetric: pIC50
Convention used: pIC50 is expressed as -log10 of the molar concentration.

Exercise: Please report pIC50 with Cytochrome P450 3A4 (Homo sapiens) for item C[C@]12CC[C@H]3[C@@H](CCC4=CC(=O)CC[C@@]43C)[C@@H]1CC[C@@H]2O [TESTOSTERONE] .
Solution: 7.43

====

Please respond with reported pEC50 for every item in the list.
System: Human immunodeficiency virus 1
assayNotes: Antiviral activity against HIV-1 harboring RT Y181C mutant infected in human MT4 cells assessed as protection against virus-induced cytopathic effect incubated for 5 days by MTT assay
Format: functional, organism-based
assaySetup: Human immunodeficiency virus 1, MT4, 120 h
Convention used: pEC50 is expressed as -log10 of the molar concentration.

Exercise: Annotate the compound `CCOC(=O)c1cnc(NC2CCN(Cc3ccc(C(N)=O)cc3)CC2)nc1Oc1c(C)cc(-c2ccc(C#N)cc2)cc1C` with its measured pEC50.
Solution: 7.32

Exercise: Annotate the compound Cc1cn([C@H]2C[C@H](N=[N+]=[N-])[C@@H](CO)O2)c(=O)[nH]c1=O [ZIDOVUDINE] with its measured pEC50.
Solution: 7.68

Exercise: Annotate the compound O=C1Nc2ccc(Cl)cc2[C@@](C#CC2CC2)(C(F)(F)F)O1 [EFAVIRENZ] with its measured pEC50.
Solution: 8.10

Exercise: Annotate the compound `CCOC(=O)c1cnc(NC2CCN(Cc3cccnc3)CC2)nc1Oc1c(C)cc(-c2ccc(C#N)cc2)cc1C` with its measured pEC50.
Solution: 7.00

Exercise: Annotate the compound `CCOC(=O)c1cnc(NC2CCN(Cc3ccc(S(=O)(=O)NC)cc3)CC2)nc1Oc1c(C)cc(-c2ccc(C#N)cc2)cc1C` with its measured pEC50.
Solution: 7.14

Exercise: Annotate the compound `CCOC(=O)c1cnc(NC2CCN(Cc3ccc(C(=O)NC)cc3)CC2)nc1Oc1c(C)cc(-c2ccc(C#N)cc2)cc1C` with its measured pEC50.
Solution: 7.42

====

recordedMetric: IC50 (nM)
Your answer is read as nM, so omit the unit and give the number.

Exercise: Please report IC50 with Cytochrome P450 2D6 (Homo sapiens, UniProt P10635) for item `COc1ccc2c(c1)[C@]13CCCC[C@@H]1[C@H](C2)N(C)CC3` .
Sequence (P10635 whole entry): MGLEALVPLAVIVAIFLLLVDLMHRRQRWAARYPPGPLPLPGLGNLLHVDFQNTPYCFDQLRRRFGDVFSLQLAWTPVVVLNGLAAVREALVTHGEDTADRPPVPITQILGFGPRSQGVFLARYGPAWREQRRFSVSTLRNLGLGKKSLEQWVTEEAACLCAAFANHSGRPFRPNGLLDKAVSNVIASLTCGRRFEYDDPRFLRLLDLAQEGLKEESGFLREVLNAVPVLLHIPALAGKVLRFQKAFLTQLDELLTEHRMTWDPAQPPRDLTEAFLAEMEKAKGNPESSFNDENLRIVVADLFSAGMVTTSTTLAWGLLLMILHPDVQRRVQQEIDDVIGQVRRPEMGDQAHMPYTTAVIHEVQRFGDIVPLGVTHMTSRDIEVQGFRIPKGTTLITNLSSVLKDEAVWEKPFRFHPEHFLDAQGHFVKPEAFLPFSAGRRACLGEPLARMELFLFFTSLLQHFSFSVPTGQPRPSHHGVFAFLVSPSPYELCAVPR
Solution: 242

====

assayNotes: Selectivity index, ratio of CC50 for human MT4 cells to EC50 for wild-type HIV-1 IIIB infected in human MT4 cells
Format: toxicity, cell-based
assaySetup: read-out: Ratio CC50/EC50
Please respond with reported selectivity ratio for every item in the list.
Note: the reply should be a number with no unit written.

Exercise: Annotate the compound `CCOC(=O)c1cnc(NC2CCN(Cc3ccc(Cl)cc3)CC2)nc1Oc1c(C)cc(-c2ccc(C#N)cc2)cc1C` with its measured selectivity ratio.
Solution: 728

Exercise: Annotate the compound `CCOC(=O)c1cnc(NC2CCN(Cc3ccc(F)cc3F)CC2)nc1Oc1c(C)cc(-c2ccc(C#N)cc2)cc1C` with its measured selectivity ratio.
Solution: 3280

Exercise: Annotate the compound `CCOC(=O)c1cnc(NC2CCN(Cc3ccc(CO)cc3)CC2)nc1Oc1c(C)cc(-c2ccc(C#N)cc2)cc1C` with its measured selectivity ratio.
Solution: 4740

====

Please respond with reported solubility for every item in the list.
assayNotes: Solubility of compound in water by HPLC analysis
Type: physicochemical
Your answer is read as µg/mL, so omit the unit and give the number.

Exercise: Annotate the compound `CCOC(=O)c1cnc(NC2CCN(Cc3ccc(C(=O)NC)cc3)CC2)nc1Nc1c(C)cc(-c2ccc(C#N)cc2)cc1C.O=P(O)(O)O` with its measured solubility.
Solution: 77.2

Exercise: Annotate the compound `CCOC(=O)c1cnc(NC2CCN(Cc3ccc(C(=O)NC)cc3)CC2)nc1Oc1c(C)cc(-c2ccc(C#N)cc2)cc1C.Cl` with its measured solubility.
Solution: 336

Exercise: Annotate the compound `Br.CCOC(=O)c1cnc(NC2CCN(Cc3ccc(C(=O)NC)cc3)CC2)nc1Nc1c(C)cc(-c2ccc(C#N)cc2)cc1C` with its measured solubility.
Solution: 91.4

Exercise: Annotate the compound `CCOC(=O)c1cnc(NC2CCN(Cc3ccc(C(=O)NC)cc3)CC2)nc1Nc1c(C)cc(-c2ccc(C#N)cc2)cc1C.O=S(=O)(O)O` with its measured solubility.
Solution: 134

====

system: Human immunodeficiency virus type 1 reverse transcriptase (Human immunodeficiency virus 1, UniProt Q72547)
assayNotes: Inhibition of recombinant wild-type HIV-1 reverse transcriptase incubated for 40 mins by fluorescence based assay
Please respond with reported pIC50 for every item in the list.
Convention used: pIC50 is expressed as -log10 of the molar concentration.

Exercise: Annotate the molecule `CCOC(=O)c1cnc(NC2CCN(Cc3ccc(C(=O)NC)cc3)CC2)nc1Oc1c(C)cc(-c2ccc(C#N)cc2)cc1C` with its measured pIC50.
Solution: 6.15

Exercise: Annotate the molecule `CCOC(=O)c1cnc(NC2CCN(Cc3ccccc3C#N)CC2)nc1Oc1c(C)cc(-c2ccc(C#N)cc2)cc1C` with its measured pIC50.
Solution: 6.49

Exercise: Annotate the molecule `CCOC(=O)c1cnc(NC2CCN(Cc3ccncc3)CC2)nc1Oc1c(C)cc(-c2ccc(C#N)cc2)cc1C` with its measured pIC50.
Solution: 6.28

Exercise: Annotate the molecule `CCOC(=O)c1cnc(NC2CCN(Cc3ccc(F)cc3)CC2)nc1Oc1c(C)cc(-c2ccc(C#N)cc2)cc1C` with its measured pIC50.
Solution: 6.24

Exercise: Annotate the molecule `CCOC(=O)c1cnc(NC2CCN(Cc3ccc(C#N)cc3)CC2)nc1Oc1c(C)cc(-c2ccc(C#N)cc2)cc1C` with its measured pIC50.
Solution: 6.11

Exercise: Annotate the molecule `CCOC(=O)c1cnc(NC2CCN(Cc3ccc(S(=O)(=O)NC)cc3)CC2)nc1Oc1c(C)cc(-c2ccc(C#N)cc2)cc1C` with its measured pIC50.
Solution: 6.13

Exercise: Annotate the molecule `CCOC(=O)c1cnc(NC2CCN(Cc3ccc(/C=C/C(=O)OC)cc3)CC2)nc1Oc1c(C)cc(-c2ccc(C#N)cc2)cc1C` with its measured pIC50.
Solution: 6.27

Exercise: Annotate the molecule `CCOC(=O)c1cnc(NC2CCN(Cc3cccc(C(=O)NC)c3)CC2)nc1Oc1c(C)cc(-c2ccc(C#N)cc2)cc1C` with its measured pIC50.
Solution: 6.16

====

assayNotes: Selectivity index, ratio of CC50 for human MT4 cells to EC50 for wild-type HIV-1 IIIB infected in human MT4 cells
Assay type: toxicity, cell-based
assaySetup: read-out: Ratio CC50/EC50
# selectivity ratio >= 4000 gives true, anything below gives false

Exercise: Reported selectivity ratio at or above 4000? `CCOC(=O)c1cnc(NC2CCN(Cc3ccc(B(O)O)cc3)CC2)nc1Oc1c(C)cc(-c2ccc(C#N)cc2)cc1C`
Solution: false

Exercise: Reported selectivity ratio at or above 4000? `CCOC(=O)c1cnc(NC2CCN(Cc3ccc(C)cc3)CC2)nc1Oc1c(C)cc(-c2ccc(C#N)cc2)cc1C`
Solution: true

Exercise: Reported selectivity ratio at or above 4000? `CCOC(=O)c1cnc(NC2CCN(Cc3ccc(F)cc3)CC2)nc1Oc1c(C)cc(-c2ccc(C#N)cc2)cc1C`
Solution: true

Exercise: Reported selectivity ratio at or above 4000? `CCOC(=O)c1cnc(NC2CCN(Cc3ccncc3)CC2)nc1Oc1c(C)cc(-c2ccc(C#N)cc2)cc1C`
Solution: false

Exercise: Reported selectivity ratio at or above 4000? `CCOC(=O)c1cnc(NC2CCN(Cc3ccc(F)c(F)c3)CC2)nc1Oc1c(C)cc(-c2ccc(C#N)cc2)cc1C`
Solution: false

Exercise: Reported selectivity ratio at or above 4000? `CCOC(=O)c1cnc(N2CCN(Cc3cccc(C(N)=O)c3)CC2)nc1Oc1c(C)cc(-c2ccc(C#N)cc2)cc1C`
Solution: false

Exercise: Reported selectivity ratio at or above 4000? `CCOC(=O)c1cnc(NC2CCN(Cc3ccc([N+](=O)[O-])cc3)CC2)nc1Oc1c(C)cc(-c2ccc(C#N)cc2)cc1C`
Solution: true

Exercise: Reported selectivity ratio at or above 4000? `CCOC(=O)c1cnc(NC2CCN(Cc3ccc(S(=O)(=O)NC)cc3)CC2)nc1Oc1c(C)cc(-c2ccc(C#N)cc2)cc1C`
Solution: false

Exercise: Reported selectivity ratio at or above 4000? `CCOC(=O)c1cnc(NC2CCN(Cc3ccc(C(=O)NC)cc3)CC2)nc1Oc1c(C)cc(-c2ccc(C#N)cc2)cc1C`
Solution: true

Exercise: Reported selectivity ratio at or above 4000? `CCOC(=O)c1cnc(NC2CCN(Cc3cccc(C(N)=O)c3)CC2)nc1Oc1c(C)cc(-c2ccc(C#N)cc2)cc1C`
Solution: false

Exercise: Reported selectivity ratio at or above 4000? `CCOC(=O)c1cnc(NC2CCN(Cc3ccc(C(N)=O)cc3)CC2)nc1Oc1c(C)cc(-c2ccc(C#N)cc2)cc1C`
Solution: true

Exercise: Reported selectivity ratio at or above 4000? `CCOC(=O)c1cnc(NC2CCN(Cc3ccc(C#N)cc3)CC2)nc1Oc1c(C)cc(-c2ccc(C#N)cc2)cc1C`
Solution: false

Exercise: Reported selectivity ratio at or above 4000? `CCOC(=O)c1cnc(NC2CCN(Cc3ccc(S(N)(=O)=O)cc3)CC2)nc1Oc1c(C)cc(-c2ccc(C#N)cc2)cc1C`
Solution: true
